# Tested on: Pseudomonas aeruginosa
# ASSAY_TEXT: Minimal inhibitory concentration against Pseudomonas aeruginosa
# Assay type: functional
REPORTED_ENDPOINT: MIC (µg/mL)

COc1ccc(Nc2cc3sc(C)c(C)c3cc2C)cc1 ... 1000
CC1(C)S[C@@H]2[C@H](NC(=O)[C@H](N)c3ccccc3)C(=O)N2[C@H]1C(=O)O [AMPICILLIN] ... 6.25

A. Cc1cc2c(C)c(C)sc2cc1Nc1ccccc1
B. COc1ccc(Nc2cc3sc(C)c(C)c3cc2C)cc1OC
*Q* Could you tell me which of A and B has the lower MIC reading? // respond with label for picked entry
*A* A

---

# Tested on: Pseudomonas aeruginosa
# ASSAY_TEXT: inhibition of Pseudomonas aeruginosa was measured by zone diameter
# Type: functional
REPORTED_ENDPOINT: Inhibition (mm)
All answers are understood in mm, so give the number only.

Known results for compounds:
COc1ccc(Nc2cc3sc(C)c(C)c3cc2C)cc1 ... 8
Cc1cc2c(C)c(C)sc2cc1Nc1ccccc1 ... 16
COc1ccc(Nc2cc3sc(C)c(C)c3cc2C)cc1OC ... 10

From here, focus on the item given below.
*Q* Request body: readout Inhibition, system Pseudomonas aeruginosa, query CC1(C)S[C@@H]2[C@H](NC(=O)[C@H](N)c3ccccc3)C(=O)N2[C@H]1C(=O)O [AMPICILLIN] . Return the value.
*A* 12

---

# Tested on: Bacillus subtilis
# ASSAY_TEXT: inhibition of Bacillus subtilis was measured by zone diameter
# Assay type: functional
Recorded Inhibition values for a group of compounds are listed next.
All answers are understood in mm, so give the number only.

Known results for compounds:
Cc1cc2c(C)c(C)sc2cc1Br ... 18
CC1(C)S[C@@H]2[C@H](NC(=O)[C@H](N)c3ccccc3)C(=O)N2[C@H]1C(=O)O ... 10
Cc1cc2c(C)c(C)sc2cc1Nc1ccc(F)cc1 ... 10
COc1ccc(Nc2cc3sc(C)c(C)c3cc2C)cc1 ... 19
Cc1cc2c(C)c(C)sc2cc1Nc1ccccc1 ... 8
COc1ccc(Nc2cc3sc(C)c(C)c3cc2C)cc1OC ... 10
Cc1cc2c(C)c(C)sc2cc1Nc1ccccc1F ... 8

From here, focus on the item given below.
*Q* Find the recorded Inhibition belonging to Cc1cc2c(C)c(C)sc2cc1N and report it.
*A* 17
